Test system: NCI-H1299 (Non-Small Cell Lung Carcinoma)
Experiment: Bliss excess, mean over the matrix (fraction); higher = more synergy
measurement_name: Bliss excess

compound="NC1(C(=O)N[C@@H](CCO)c2ccc(Cl)cc2)CCN(c2ncnc3[nH]ccc23)CC1 [Capivasertib] + C[C@@H]1COCCN1C2=NC(=NC(=C2)C3(CC3)[S@](=N)(=O)C)C4=C5C=CNC5=NC=C4 [AZD6738] (first compound max 10 µM, 7x7, partner max 10 µM)" measurement_name="Bliss excess" numeric_readout=-0.0309
compound="O=C(c1cc(Cc2n[nH]c(=O)c3ccccc23)ccc1F)N1CCN(C(=O)C2CC2)CC1 [Olaparib] + Cc1c2c(nn1C)CSCc1cc(n(C)n1)CSc1cc(c3ccccc3c1)OCCCc1c(C(=O)O)n(C)c3c-2c(Cl)ccc13 [AZD5991] (first compound max 10 µM, 7x7, partner max 1 µM)" measurement_name="Bliss excess" numeric_readout=-0.0455
compound="Cc1c2c(nn1C)CSCc1cc(n(C)n1)CSc1cc(c3ccccc3c1)OCCCc1c(C(=O)O)n(C)c3c-2c(Cl)ccc13 [AZD5991] + CCN(CCO)CCCOc1ccc2c(Nc3cc(CC(=O)Nc4cccc(F)c4)[nH]n3)ncnc2c1 [AZD2811] (first compound max 1 µM, 7x7, partner max 1 µM)" measurement_name="Bliss excess" numeric_readout=-0.0012
compound="CN(C)CCCOc1ccc(-c2ccc3ncc4c(c3c2)n(C2CCOCC2)c(=O)n4C)cn1 [AZD0156] + CCN(CCO)CCCOc1ccc2c(Nc3cc(CC(=O)Nc4cccc(F)c4)[nH]n3)ncnc2c1 [AZD2811] (first compound max 1 µM, 7x7, partner max 1 µM)" measurement_name="Bliss excess" numeric_readout=-0.021
compound="CN(CCO)CC[C@H](CSc1ccccc1)Nc1ccc(S(=O)(=O)NC(=O)c2ccc(N3CCC([C@@H](O)c4ccccc4-c4ccc(Cl)cc4)CC3)cc2)cc1S(=O)(=O)C(F)(F)F [AZD4320] + C=CCn1c(=O)c2cnc(Nc3ccc(N4CCN(C)CC4)cc3)nc2n1-c1cccc(C(C)(C)O)n1 [AZD1775] (first compound max 1 µM, partner max 1 µM)" measurement_name="Bliss excess" numeric_readout=-0.0107
compound="CCc1c2c(nc3ccc(O)cc13)-c1cc3c(c(=O)n1C2)COC(=O)[C@]3(O)CC [SN-38] + O=C(c1cc(Cc2n[nH]c(=O)c3ccccc23)ccc1F)N1CCN(C(=O)C2CC2)CC1 [Olaparib] (first compound max 0.3 µM, 7x7, partner max 10 µM)" measurement_name="Bliss excess" numeric_readout=0.129
compound="C[C@@H](c1ccc2nccn2c1)n1nnc2ncc(-c3cnn(C)c3)nc21 [Savolitinib] + Cc1c2c(nn1C)CSCc1cc(n(C)n1)CSc1cc(c3ccccc3c1)OCCCc1c(C(=O)O)n(C)c3c-2c(Cl)ccc13 [AZD5991] (first compound max 1 µM, 7x7, partner max 1 µM)" measurement_name="Bliss excess" numeric_readout=-0.0519

====

We begin with a simple list: items and their reported combination Emax.
Tested on: NCI-H2369 (Mesothelioma)
Assay: combination Emax (second highest fraction inhibited in the dose matrix, 72 h); higher = more inhibition; extreme values may be limits of the assay
measurement_name: combination Emax

compound="Cn1cnc2c(F)c(Nc3ccc(Br)cc3Cl)c(C(=O)NOCCO)cc21 [Selumetinib] + C[C@@H]1COCCN1C2=NC(=NC(=C2)C3(CC3)[S@](=N)(=O)C)C4=C5C=CNC5=NC=C4 [AZD6738] (first compound max 10 µM, 7x7, partner max 10 µM)" test_target="NCI-H2369 (Mesothelioma)" result=0.187
compound="CN(CCO)CC[C@H](CSc1ccccc1)Nc1ccc(S(=O)(=O)NC(=O)c2ccc(N3CCC([C@@H](O)c4ccccc4-c4ccc(Cl)cc4)CC3)cc2)cc1S(=O)(=O)C(F)(F)F [AZD4320] + C[C@@H]1COCCN1C2=NC(=NC(=C2)C3(CC3)[S@](=N)(=O)C)C4=C5C=CNC5=NC=C4 [AZD6738] (first compound max 1 µM, 7x7, partner max 10 µM)" test_target="NCI-H2369 (Mesothelioma)" result=0.324
compound="Cc1c2c(nn1C)CSCc1cc(n(C)n1)CSc1cc(c3ccccc3c1)OCCCc1c(C(=O)O)n(C)c3c-2c(Cl)ccc13 [AZD5991] + C[C@@H]1COCCN1C2=NC(=NC(=C2)C3(CC3)[S@](=N)(=O)C)C4=C5C=CNC5=NC=C4 [AZD6738] (first compound max 1 µM, 7x7, partner max 10 µM)" test_target="NCI-H2369 (Mesothelioma)" result=0.247

====

System: CTV-1 (T-Lymphoblastic Leukemia)
Assay: combination Emax (second highest fraction inhibited in the dose matrix, 72 h); higher = more inhibition; extreme values may be limits of the assay
measurement_name: combination Emax

compound="CN(CCO)CC[C@H](CSc1ccccc1)Nc1ccc(S(=O)(=O)NC(=O)c2ccc(N3CCC([C@@H](O)c4ccccc4-c4ccc(Cl)cc4)CC3)cc2)cc1S(=O)(=O)C(F)(F)F [AZD4320] + Cc1cc2ncnn2cc1Nc1ncc2c(n1)n(C1CCOCC1)c(=O)n2C [AZD7648] (first compound max 1 µM, 7x7, partner max 10 µM)" measurement_name="combination Emax" numeric_readout=0.315
compound="CN(C)CCCOc1ccc(-c2ccc3ncc4c(c3c2)n(C2CCOCC2)c(=O)n4C)cn1 [AZD0156] + CCN(CCO)CCCOc1ccc2c(Nc3cc(CC(=O)Nc4cccc(F)c4)[nH]n3)ncnc2c1 [AZD2811] (first compound max 1 µM, 7x7, partner max 1 µM)" measurement_name="combination Emax" numeric_readout=0.234
compound="COc1nnc2ccc(N3CCC(c4ccc(OCCN5CCN(C)C(=O)[C@H]5C)cc4)CC3)nn12 [AZD5153] + Cn1cnc2c(F)c(Nc3ccc(Br)cc3Cl)c(C(=O)NOCCO)cc21 [Selumetinib] (first compound max 1 µM, 7x7, partner max 10 µM)" measurement_name="combination Emax" numeric_readout=0.99
compound="COc1nnc2ccc(N3CCC(c4ccc(OCCN5CCN(C)C(=O)[C@H]5C)cc4)CC3)nn12 [AZD5153] + C=CCn1c(=O)c2cnc(Nc3ccc(N4CCN(C)CC4)cc3)nc2n1-c1cccc(C(C)(C)O)n1 [AZD1775] (first compound max 1 µM, partner max 1 µM)" measurement_name="combination Emax" numeric_readout=0.996
compound="CN(CCO)CC[C@H](CSc1ccccc1)Nc1ccc(S(=O)(=O)NC(=O)c2ccc(N3CCC([C@@H](O)c4ccccc4-c4ccc(Cl)cc4)CC3)cc2)cc1S(=O)(=O)C(F)(F)F [AZD4320] + Cn1cnc2c(F)c(Nc3ccc(Br)cc3Cl)c(C(=O)NOCCO)cc21 [Selumetinib] (first compound max 1 µM, 7x7, partner max 3 µM)" measurement_name="combination Emax" numeric_readout=0.706
compound="Cc1c2c(nn1C)CSCc1cc(n(C)n1)CSc1cc(c3ccccc3c1)OCCCc1c(C(=O)O)n(C)c3c-2c(Cl)ccc13 [AZD5991] + CN(C)CCCOc1ccc(-c2ccc3ncc4c(c3c2)n(C2CCOCC2)c(=O)n4C)cn1 [AZD0156] (first compound max 1 µM, 7x7, partner max 1 µM)" measurement_name="combination Emax" numeric_readout=0.301
compound="CC(=O)c1c(C)c2cnc(Nc3ccc(N4CCNCC4)cn3)nc2n(C2CCCC2)c1=O [Palbociclib] + Cc1c2c(nn1C)CSCc1cc(n(C)n1)CSc1cc(c3ccccc3c1)OCCCc1c(C(=O)O)n(C)c3c-2c(Cl)ccc13 [AZD5991] (first compound max 10 µM, 7x7, partner max 1 µM)" measurement_name="combination Emax" numeric_readout=0.843

====

combination Emax reference
System: OCI-AML2 (Acute Myeloid Leukemia)
Experiment: combination Emax (second highest fraction inhibited in the dose matrix, 72 h); higher = more inhibition; extreme values may be limits of the assay
measurement_name: combination Emax

compound="Cc1cc2ncnn2cc1Nc1ncc2c(n1)n(C1CCOCC1)c(=O)n2C [AZD7648] + O=C(c1cc(Cc2n[nH]c(=O)c3ccccc23)ccc1F)N1CCN(C(=O)C2CC2)CC1 [Olaparib] (first compound max 10 µM, 7x7, partner max 10 µM)" numeric_readout=0.723
compound="CCN(CCO)CCCOc1ccc2c(Nc3cc(CC(=O)Nc4cccc(F)c4)[nH]n3)ncnc2c1 [AZD2811] + O=C(c1cc(Cc2n[nH]c(=O)c3ccccc23)ccc1F)N1CCN(C(=O)C2CC2)CC1 [Olaparib] (first compound max 1 µM, 7x7, partner max 10 µM)" numeric_readout=0.873

====

System: HCC2157 (Breast Carcinoma)
Assay: Bliss excess, mean over the matrix (fraction); higher = more synergy
Reported Bliss excess by item:
measurement_name: Bliss excess

compound="COc1cccc(OCCCN)c1-c1cc(Nc2cnc(C#N)cn2)n[nH]1 [Prexasertib] + C=CCn1c(=O)c2cnc(Nc3ccc(N4CCN(C)CC4)cc3)nc2n1-c1cccc(C(C)(C)O)n1 [AZD1775] (first compound max 1 µM, partner max 1 µM)" numeric_readout=0.0668
compound="CC1(C)CCC(CN2CCN(c3ccc(C(=O)NS(=O)(=O)c4ccc(NCC5CCOCC5)c([N+](=O)[O-])c4)c(Oc4cnc5[nH]ccc5c4)c3)CC2)=C(c2ccc(Cl)cc2)C1 [Venetoclax] + CCN(CCO)CCCOc1ccc2c(Nc3cc(CC(=O)Nc4cccc(F)c4)[nH]n3)ncnc2c1 [AZD2811] (first compound max 1 µM, 7x7, partner max 1 µM)" numeric_readout=-0.0305
compound="CN(CCO)CC[C@H](CSc1ccccc1)Nc1ccc(S(=O)(=O)NC(=O)c2ccc(N3CCC([C@@H](O)c4ccccc4-c4ccc(Cl)cc4)CC3)cc2)cc1S(=O)(=O)C(F)(F)F [AZD4320] + C1CN(CCC1(C(=O)N[C@@H](CCO)C2=CC=C(C=C2)Cl)N)C3=NC=NC4=C3C=CN4 [Capivasertib] (first compound max 1 µM, 7x7, partner max 3 µM)" numeric_readout=0.0191
